Readings of logP for the listed compounds
Assay: Octanol-water partition coefficient of the compound
Format: physicochemical

{"COMPOUND": "COc1ccc(-c2c(C#N)[n+]([O-])c3ccccc3[n+]2[O-])cc1", "logP": 1.58}
{"COMPOUND": "N#Cc1c(-c2ccco2)[n+]([O-])c2cc(F)c(F)cc2[n+]1[O-]", "logP": 1.38}
{"COMPOUND": "CC1CS(=O)(=O)CCN1/N=C/c1ccc([N+](=O)[O-])o1 (configuration not stated)", "logP": -0.746}
{"COMPOUND": "Cc1ccc(-c2c(C#N)[n+]([O-])c3cc(Cl)ccc3[n+]2[O-])cc1", "logP": 2.6}
{"COMPOUND": "COc1ccc(-c2c(C#N)[n+]([O-])c3cc(C)c(C)cc3[n+]2[O-])cc1", "logP": 2.06}
{"COMPOUND": "N#Cc1c(-c2ccc(F)cc2)[n+]([O-])c2ccc(Cl)cc2[n+]1[O-]", "logP": 2.74}
{"COMPOUND": "N#Cc1c(-c2ccc(F)cc2)[n+]([O-])c2ccc(F)cc2[n+]1[O-]", "logP": 2.62}
{"COMPOUND": "N#Cc1c(-c2ccccc2)[n+]([O-])c2cc(Cl)c(Cl)cc2[n+]1[O-]", "logP": 2.87}
{"COMPOUND": "Cc1ccc(-c2c(C#N)[n+]([O-])c3cc(F)c(F)cc3[n+]2[O-])cc1", "logP": 2.87}
{"COMPOUND": "N#Cc1c(-c2ccco2)[n+]([O-])c2ccc(F)cc2[n+]1[O-]", "logP": 0.983}
{"COMPOUND": "COc1ccc(-c2c(C#N)[n+]([O-])c3cc(Cl)c(Cl)cc3[n+]2[O-])cc1", "logP": 2.33}
{"COMPOUND": "N#Cc1c(-c2ccc(OC(F)(F)F)cc2)[n+]([O-])c2ccccc2[n+]1[O-]", "logP": 1.94}
{"COMPOUND": "N#Cc1c(-c2ccc(OC(F)(F)F)cc2)[n+]([O-])c2ccc(F)cc2[n+]1[O-]", "logP": 2.33}
{"COMPOUND": "Cc1ccc2c(c1)[n+]([O-])c(C#N)c(-c1ccc(F)cc1)[n+]2[O-]", "logP": 2.48}
{"COMPOUND": "Cc1ccc2c(c1)[n+]([O-])c(C#N)c(-c1ccccc1)[n+]2[O-]", "logP": 2.09}
{"COMPOUND": "N#Cc1c(-c2ccc(F)cc2)[n+]([O-])c2ccc(C(F)(F)F)cc2[n+]1[O-]", "logP": 3.1}
{"COMPOUND": "N#Cc1c(-c2ccccc2)[n+]([O-])c2ccccc2[n+]1[O-]", "logP": 1.84}

---

Assay: Octanol-water partition coefficient of the compound
Type: physicochemical
logP less than 2 is Y; logP greater than or equal to 2 is N.

{"SMILES": "COc1ccc2c(c1)[n+]([O-])c(C#N)c(-c1ccccc1)[n+]2[O-]", "LABEL_VALUE": "Y"}
{"SMILES": "N#Cc1c(-c2ccc(OC(F)(F)F)cc2)[n+]([O-])c2ccc(C(F)(F)F)cc2[n+]1[O-]", "LABEL_VALUE": "N"}
{"SMILES": "Cc1ccc2c(c1)[n+]([O-])c(C#N)c(-c1ccc(OC(F)(F)F)cc1)[n+]2[O-]", "LABEL_VALUE": "N"}
{"SMILES": "N#Cc1c(-c2ccc(OC(F)(F)F)cc2)[n+]([O-])c2ccc(Cl)cc2[n+]1[O-]", "LABEL_VALUE": "N"}
{"SMILES": "N#Cc1c(-c2ccc(Cl)cc2)[n+]([O-])c2cc(Cl)c(Cl)cc2[n+]1[O-]", "LABEL_VALUE": "N"}
{"SMILES": "N#Cc1c(-c2cccs2)[n+]([O-])c2cc(Cl)c(Cl)cc2[n+]1[O-]", "LABEL_VALUE": "N"}
{"SMILES": "COc1ccccc1N1CCN(c2c(C#N)[n+]([O-])c3cc(Cl)ccc3[n+]2[O-])CC1", "LABEL_VALUE": "Y"}
{"SMILES": "N#Cc1c(-c2ccc(F)cc2)[n+]([O-])c2ccccc2[n+]1[O-]", "LABEL_VALUE": "N"}
{"SMILES": "COc1ccc(-c2c(C#N)[n+]([O-])c3cc(F)c(F)cc3[n+]2[O-])cc1", "LABEL_VALUE": "N"}
{"SMILES": "N#Cc1c(-c2cccs2)[n+]([O-])c2ccc(C(F)(F)F)cc2[n+]1[O-]", "LABEL_VALUE": "N"}
{"SMILES": "N#Cc1c(-c2ccc(Cl)cc2)[n+]([O-])c2ccc(Cl)cc2[n+]1[O-]", "LABEL_VALUE": "N"}
{"SMILES": "N#Cc1c(-c2ccc(OC(F)(F)F)cc2)[n+]([O-])c2cc(F)c(F)cc2[n+]1[O-]", "LABEL_VALUE": "N"}
{"SMILES": "COc1ccc2c(c1)[n+]([O-])c(C#N)c(-c1ccco1)[n+]2[O-]", "LABEL_VALUE": "Y"}
{"SMILES": "N#Cc1c(N2CCN(c3cccc(C(F)(F)F)c3)CC2)[n+]([O-])c2ccc(Cl)cc2[n+]1[O-]", "LABEL_VALUE": "N"}
{"SMILES": "N#Cc1c(-c2ccccc2)[n+]([O-])c2ccc(F)cc2[n+]1[O-]", "LABEL_VALUE": "N"}
{"SMILES": "Cc1cc2c(cc1C)[n+]([O-])c(-c1cccs1)c(C#N)[n+]2[O-]", "LABEL_VALUE": "Y"}
{"SMILES": "Cc1cc2c(cc1C)[n+]([O-])c(-c1ccccc1)c(C#N)[n+]2[O-]", "LABEL_VALUE": "N"}
{"SMILES": "N#Cc1c(-c2cccs2)[n+]([O-])c2ccc(F)cc2[n+]1[O-]", "LABEL_VALUE": "Y"}
